# target-entity: hGAT-3 (Homo sapiens)
# Construct: full-length transporter stably expressed in COS-7 cells
# Sequence (P48066 whole entry): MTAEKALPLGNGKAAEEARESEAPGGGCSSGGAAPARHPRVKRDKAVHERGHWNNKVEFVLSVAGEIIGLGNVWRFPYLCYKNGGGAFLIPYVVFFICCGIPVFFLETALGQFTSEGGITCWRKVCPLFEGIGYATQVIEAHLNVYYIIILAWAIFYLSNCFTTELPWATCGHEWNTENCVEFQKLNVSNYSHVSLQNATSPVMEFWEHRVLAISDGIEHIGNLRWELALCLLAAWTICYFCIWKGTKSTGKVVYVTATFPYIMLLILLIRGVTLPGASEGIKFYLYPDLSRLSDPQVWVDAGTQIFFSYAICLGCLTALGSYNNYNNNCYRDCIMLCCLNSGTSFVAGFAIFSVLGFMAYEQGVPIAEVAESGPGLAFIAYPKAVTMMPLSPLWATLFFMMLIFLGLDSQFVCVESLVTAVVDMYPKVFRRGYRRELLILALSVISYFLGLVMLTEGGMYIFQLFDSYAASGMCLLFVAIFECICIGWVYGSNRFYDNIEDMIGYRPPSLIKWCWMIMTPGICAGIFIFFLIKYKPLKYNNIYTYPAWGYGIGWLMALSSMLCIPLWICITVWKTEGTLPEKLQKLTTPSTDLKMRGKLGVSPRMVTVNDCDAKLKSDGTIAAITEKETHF
# test-protocol: MS Transport Assay (GABA transport), COS-7 cells
reported-property: pIC50
Answers are plain numbers, as −log10 of the molar value.

molecule	pIC50
O=C(O)C1CCCN(CC=C=C(c2ccc(Cl)cc2)c2ccc(Cl)cc2)C1 (racemic)	6.35
O=C(O)[C@@H]1CCCN(CC=C=C(c2ccc(Cl)cc2)c2ccc(Cl)cc2)C1 [(R)-8d]	5.62
O=C(O)[C@H]1CCCN(CC=C=C(c2ccc(Cl)cc2)c2ccc(Cl)cc2)C1 [(S)-8d]	6.49
O=C(O)C1CCCN(CC=C=C(c2ccccc2)c2ccc(-c3ccccc3)cc2)C1 (racemic)	5.78

Input line: Quick check: pIC50 of O=C(O)C1CCCN(CCC=C=C(c2ccccc2)c2ccc(-c3ccccc3)cc2)C1 (racemic) [11f] ?
Output line: 5.21

====

# target-entity: mGAT2 (Mus musculus, UniProt P31651)
# Construct: full-length transporter stably expressed in HEK293 cells; mouse nomenclature, equivalent of hBGT-1
# Sequence (P31651 whole entry): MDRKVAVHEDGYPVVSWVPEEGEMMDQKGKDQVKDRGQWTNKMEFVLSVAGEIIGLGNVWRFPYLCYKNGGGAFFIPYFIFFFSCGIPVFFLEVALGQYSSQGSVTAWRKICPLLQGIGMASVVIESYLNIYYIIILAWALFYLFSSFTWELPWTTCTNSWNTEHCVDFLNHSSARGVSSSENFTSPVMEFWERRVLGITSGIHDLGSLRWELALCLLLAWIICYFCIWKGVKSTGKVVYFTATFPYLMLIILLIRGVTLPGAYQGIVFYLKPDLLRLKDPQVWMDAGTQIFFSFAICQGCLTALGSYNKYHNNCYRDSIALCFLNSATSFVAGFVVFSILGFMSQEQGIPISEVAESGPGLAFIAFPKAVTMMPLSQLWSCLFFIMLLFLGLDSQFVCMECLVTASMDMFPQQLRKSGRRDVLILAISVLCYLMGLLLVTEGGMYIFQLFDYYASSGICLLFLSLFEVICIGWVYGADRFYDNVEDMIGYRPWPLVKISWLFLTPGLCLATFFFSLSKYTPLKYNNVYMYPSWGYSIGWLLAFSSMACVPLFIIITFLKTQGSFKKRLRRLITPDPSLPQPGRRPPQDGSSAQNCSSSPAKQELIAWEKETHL
# test-protocol: [3H]GABA uptake, intact HEK293 cells
What IC50 was measured for each of the following?
Answers are plain numbers, in µM.

compound	target-entity	IC50, µM
Cc1ccc(C(=C=CCCN2CCCC(C(=O)O)C2)c2ccc(C)cc2)cc1 (racemic) [rac-11b]	mGAT2 (Mus musculus, UniProt P31651)	81.3
O=C(O)[C@@H]1CCCN(CC=C=C(c2ccc(Cl)cc2)c2ccc(Cl)cc2)C1 [(R)-8d]	mGAT2 (Mus musculus, UniProt P31651)	15.8
O=C(O)C1CCCN(CC=C=C(c2ccccc2)c2ccc(-c3ccccc3)cc2)C1 (racemic)	mGAT2 (Mus musculus, UniProt P31651)	6.46
Cc1ccc(C(=C=CCN2CCCC(C(=O)O)C2)c2ccc(C)cc2)cc1 (racemic)	mGAT2 (Mus musculus, UniProt P31651)	27.5
O=C(O)C1CCCN(CCC=C=C(c2ccccc2)c2ccc(-c3ccccc3)cc2)C1 (racemic) [11f]	mGAT2 (Mus musculus, UniProt P31651)	12.3
O=C(O)C1CCCN(CCC=C=C(c2ccccc2)c2ccccc2)C1 (racemic) [rac-11a]	mGAT2 (Mus musculus, UniProt P31651)	178
O=C(O)C1CCCN(CC=C=C(c2ccc(Cl)cc2)c2ccc(Cl)cc2)C1 (racemic)	mGAT2 (Mus musculus, UniProt P31651)	7.59
O=C(O)C1CCCN(CCC=C=C(c2ccc(Cl)cc2)c2ccc(Cl)cc2)C1 (racemic) [rac-11d]	mGAT2 (Mus musculus, UniProt P31651)	12
O=C(O)C1CCCN(CC=C=C(c2ccc(F)cc2)c2ccc(F)cc2)C1 (racemic)	mGAT2 (Mus musculus, UniProt P31651)	79.4

Now for a further compound.
Input line: Reported IC50 for O=C(O)[C@H]1CCCN(CC=C=C(c2ccc(Cl)cc2)c2ccc(Cl)cc2)C1 [(S)-8d] : what is it?
Output line: 4.07

====

# target-entity: mGAT4 (Mus musculus)
# Construct: gene Slc6a11; full-length transporter stably expressed in HEK293 cells
# Sequence (P31650 whole entry): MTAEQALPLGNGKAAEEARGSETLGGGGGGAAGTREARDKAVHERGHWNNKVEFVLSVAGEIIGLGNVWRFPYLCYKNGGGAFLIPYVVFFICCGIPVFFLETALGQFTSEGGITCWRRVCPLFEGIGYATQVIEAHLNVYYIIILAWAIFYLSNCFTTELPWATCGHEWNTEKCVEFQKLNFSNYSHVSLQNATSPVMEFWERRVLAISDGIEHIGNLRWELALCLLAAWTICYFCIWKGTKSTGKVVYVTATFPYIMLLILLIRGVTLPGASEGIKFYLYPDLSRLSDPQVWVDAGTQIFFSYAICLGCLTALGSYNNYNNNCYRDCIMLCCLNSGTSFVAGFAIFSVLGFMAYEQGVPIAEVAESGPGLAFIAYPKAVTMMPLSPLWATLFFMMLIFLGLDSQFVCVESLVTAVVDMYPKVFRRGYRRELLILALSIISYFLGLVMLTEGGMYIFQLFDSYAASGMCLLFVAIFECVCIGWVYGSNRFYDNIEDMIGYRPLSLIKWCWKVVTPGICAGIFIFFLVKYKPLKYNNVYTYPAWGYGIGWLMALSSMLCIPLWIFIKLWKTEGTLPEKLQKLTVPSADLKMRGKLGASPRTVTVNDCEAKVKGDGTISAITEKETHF
# test-protocol: [3H]GABA uptake, intact HEK293 cells
# Type: cell-based
reported-property: remaining activity at 100 µM (%)
One number for each entry, in %.

Please review the entries below; each comes with its answer.
molecule	remaining activity at 100 µM (%)
O=C(O)C1CCCN(CCC=C=C(c2ccc(F)cc2)c2ccc(F)cc2)C1 (racemic) [rac-11c]	63
O=C(O)C1CCCN(CCC=C=C(c2ccccc2)c2ccccc2)C1 (racemic) [rac-11a]	64
O=C(O)C1CCCN(CC=C=C(c2ccccc2)c2ccccc2)C1 (racemic) [rac-8a]	82

Shifting focus to the molecule that follows.
Input line: What value of remaining activity at 100 µM has been reported for the following molecule? COc1ccc2c(c1)CCCC2=C=CCN1CCCC(C(=O)O)C1 (racemic) [8g]
Output line: 70

Each recorded value in this set is attributed to paper doi:10.1101/2025.02.15.638425v1.
